Tested on: IGROV1 complex spheroids (HUVEC, MSC), viability % test/control
Assay summary: Anticancer human tumor IGROV1 cell line growth inhibition [GQUAD];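 further: spheroids exposed to compounds for 7 days before readout; 100% = DMSO vehicle control viability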
Condition parameters: second compound 0.0316 µM; first compound 0.316 µM; stronger effect = lower value
Readout name: viability, T/C (%)
Numbers only; they are read as %.

Molecule: Cc1[nH]c2ccccc2c1CCNCc1ccc(/C=C/C(=O)NO)cc1 + Cc1[nH]c2ccc(F)cc2c1-c1nc2c3cccnc3c3ncccc3c2[nH]1
Readout name: viability, T/C
Measured number: 0.24
//
Molecule: Nc1ccn(C2OC(CO)C(O)C2(F)F)c(=O)n1 (stereo not given) + CN(C)c1ccc(Nc2c3ccc(NC(=O)CCN4CCCC4)cc3nc3cc(NC(=O)CCN4CCCC4)ccc23)cc1
Readout name: viability, T/C
Measured number: 6.05
//
Molecule: CCCS(=O)(=O)Nc1ccc(F)c(C(=O)c2c[nH]c3ncc(-c4ccc(Cl)cc4)cc23)c1F + Cc1cnc(CNC(=O)c2c(=O)c3ccc(N4CCCN(C)CC4)nc3n3c2sc2ccccc23)cn1
Readout name: viability, T/C
Measured number: 50.1
//
Molecule: CC(=O)O[C@H]1C(=O)[C@@]2(C)[C@H]([C@H](OC(=O)c3ccccc3)[C@]3(O)C[C@H](OC(=O)[C@H](O)[C@@H](NC(=O)c4ccccc4)c4ccccc4)C(C)=C1C3(C)C)[C@]1(OC(C)=O)CO[C@@H]1C[C@@H]2O + CN(C)c1ccc(Nc2c3ccc(NC(=O)CCN4CCCC4)cc3nc3cc(NC(=O)CCN4CCCC4)ccc23)cc1
Readout name: viability, T/C
Measured number: 6.32

viability, T/C recorded for this molecule, COc1ncnc(C2CC2)c1-c1ncc2cnn(Cc3ccc(-c4nc(C(F)(F)F)cn4C(C)C)cc3)c2n1 + Cc1cnc(CNC(=O)c2c(=O)c3ccc(N4CCCN(C)CC4)nc3n3c2sc2ccccc23)cn1 , is 53

---

Listed here are molecules together with their documented viability, T/C.
Tested on: IGROV1 complex spheroids (HUVEC, MSC), viability % test/control
Assay summary: Anticancer human tumor IGROV1 cell line growth inhibition [GQUAD];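 further: spheroids exposed to compounds for 7 days before readout; 100% = DMSO vehicle control viability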
Condition parameters: second compound 10 µM; first compound 10 µM; stronger effect = lower value
State the answer as a number, implicitly in %.

// below: answered molecules
Molecule: C#Cc1c(F)ccc2cc(O)cc(-c3ncc4c(N5CC6CCC(C5)N6)nc(OCC56CCCN5CC(F)C6)nc4c3F)c12 (stereo not given) + Cc1[nH]c2ccc(F)cc2c1-c1nc2c3cccnc3c3ncccc3c2[nH]1
Readout name: viability, T/C
Measured number: 1.27
--
Molecule: CC(C)(O)C1CCC(Nc2ccc3ncc(-c4cccc(C(F)(F)F)c4)n3n2)CC1 (stereo not given) + CN(C)c1ccc(Nc2c3ccc(NC(=O)CCN4CCCC4)cc3nc3cc(NC(=O)CCN4CCCC4)ccc23)cc1
Readout name: viability, T/C
Measured number: 2.55
--
Molecule: CC1COCCN1c1cc(C2(S(C)(=N)=O)CC2)nc(-c2ccnc3[nH]ccc23)n1 (stereo not given) + Cc1cnc(CNC(=O)c2c(=O)c3ccc(N4CCCN(C)CC4)nc3n3c2sc2ccccc23)cn1
Readout name: viability, T/C
Measured number: 4.74

// recorded viability, T/C for C#Cc1c(F)ccc2cc(O)cc(-c3ncc4c(N5CC6CCC(C5)N6)nc(OCC56CCCN5CC(F)C6)nc4c3F)c12 (stereo not given) + CN(C)c1ccc(Nc2c3ccc(NC(=O)CCN4CCCC4)cc3nc3cc(NC(=O)CCN4CCCC4)ccc23)cc1 : 5.16

Documented viability, T/C of O=C(NO)c1cnc(N2CCN(S(=O)(=O)c3ccc4ccccc4c3)CC2)nc1 + Cc1cnc(CNC(=O)c2c(=O)c3ccc(N4CCCN(C)CC4)nc3n3c2sc2ccccc23)cn1 : 0.1

The molecule listed as CC(C)(O)C1CCC(Nc2ccc3ncc(-c4cccc(C(F)(F)F)c4)n3n2)CC1 (stereo not given) + Cc1[nH]c2ccc(F)cc2c1-c1nc2c3cccnc3c3ncccc3c2[nH]1 shows viability, T/C equal to 2.38
